- system.tested: dAsCas12a S542R (Acidaminococcus sp., UniProt U2UMQ6 1-1307, S542R;D908A;E993A;D1235A)
- protocol.details: Spec-seq (native PAGE EMSA with sequencing of bound and unbound); 25 mM Tris-HCl pH 7.4, 150 mM KCl, 5 mM MgCl2, 10% glycerol, 1 mM DTT, 40 ng/uL salmon sperm DNA; 400 nM Cas12a, 480 nM crRNA, 50 nM library, 37 C 1 h; native PAGE at room temperature; high values mean tight binding;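 further: relative affinity from the bound to unbound sequence frequency ratio in Spec-seq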
- condition.details: protein: recombinant
Listing: binding signal of selected binders

{"binder": "CACA (dsDNA) DNA 1: GCTATCTAGTGCTCAGTACGCACTGCACAAGGAAACTTCTGGCAGGACCAGGTCATGAGATCGGAAGAGCACACGTCTGAACTCCAGTCA DNA 2: TGACTGGAGTTCAGACGTGTGCTCTTCCGATCTCATGACCTGGTCCTGCCAGAAGTTTCCTTGTGCAGTGCGTACTGAGCACTAGATAGC RNA: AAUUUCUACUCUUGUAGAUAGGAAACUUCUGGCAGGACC", "binding signal": "-8.06 lnKA"}
{"binder": "TATC (dsDNA) DNA 1: GCTATCTAGTGCTCAGTACGCACTGTATCAGGAAACTTCTGGCAGGACCAGGTCATGAGATCGGAAGAGCACACGTCTGAACTCCAGTCA DNA 2: TGACTGGAGTTCAGACGTGTGCTCTTCCGATCTCATGACCTGGTCCTGCCAGAAGTTTCCTGATACAGTGCGTACTGAGCACTAGATAGC RNA: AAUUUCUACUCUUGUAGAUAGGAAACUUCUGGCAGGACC", "binding signal": "-7.21 lnKA"}
{"binder": "TCAG (dsDNA) DNA 1: GCTATCTAGTGCTCAGTACGCACTGTCAGAGGAAACTTCTGGCAGGACCAGGTCATGAGATCGGAAGAGCACACGTCTGAACTCCAGTCA DNA 2: TGACTGGAGTTCAGACGTGTGCTCTTCCGATCTCATGACCTGGTCCTGCCAGAAGTTTCCTCTGACAGTGCGTACTGAGCACTAGATAGC RNA: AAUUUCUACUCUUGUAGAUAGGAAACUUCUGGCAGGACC", "binding signal": "-7.87 lnKA"}

The measurements presented in this section are drawn from paper PMC8222333.
